Test: Hydrolytic rate in 0.01 N aqueous sodium hydroxide, pH 12.0
Format: physicochemical
Conditions: 0.01 n naoh, pH 12, 0.01 N NaOH, pH 12.0, ionic strength 0.10 M (NaCl), 27.3 ± 0.2° C.; read-out: Half-life t1/2
Where a name gives a salt, the structure may show the parent alone.
endpoint-label: half-life (min)

Q: Would you mind telling me what half-life value was observed for CC(C)NCC(O)COc1ccc(CC(=O)OC2CC(C)(C)CC(C)(C)C2)cc1 (centres unmarked) [Compound 17, hydrate] ?
Ans: 44.4

(a) CC(C)NCC(O)COc1ccc(CC(=O)OCc2ccccc2)cc1 (centres unmarked) [Compound 14]
(b) CC(C)NCC(O)COc1ccc(CC(=O)OC(C)C)cc1 (centres unmarked) [Compound 12]
(c) CCCCOC(=O)Cc1ccc(OCC(O)CNC(C)(C)C)cc1 (centres unmarked) [Compound 18, oxalate hydrate]
(d) CCCOC(=O)Cc1ccc(OCC(O)CNC(C)C)cc1 (centres unmarked) [Compound 11]
Q: Arrange by half-life, high to low. Show the ranking through the labels, in the order asked for.
Ans: b, c, d, a
(b: 33.5 min, c: 9.64 min, d: 6.73 min, a: 3.33 min)

(P) CC(C)NCC(O)COc1ccc(CC(=O)OC2CCCCC2)cc1 (centres unmarked) [Compound 15, hydrate]
(Q) CCCCOC(=O)Cc1ccc(OCC(O)CNC(C)C)cc1 (centres unmarked) [Compound 13]
Q: Kindly identify which of P and Q has the larger recorded half-life value. Response format: the label of the selected entry.
Ans: P
(P: 14 min, Q: 7.48 min)
